- subject-of-test: Serine protease 1 (Bos taurus)
- assay-comment: Concentration of compound required to inhibit 50% trypsin derived from bovine pancreas
// IC50 lookup, one value per entry

# example entries with known answers
{"smi": "Cc1ccc2c(=O)oc(Nc3ccccc3I)nc2c1", "subject-of-test": "Serine protease 1 (Bos taurus)", "readout-label": "IC50", "data-value": "> 100 µM"}
{"smi": "O=c1oc(Nc2ccccc2I)nc2cc(C(F)(F)F)ccc12", "subject-of-test": "Serine protease 1 (Bos taurus)", "readout-label": "IC50", "data-value": "> 100 µM"}
{"smi": "CN(c1nc2ccccc2c(=O)o1)c1ccccc1I", "subject-of-test": "Serine protease 1 (Bos taurus)", "readout-label": "IC50", "data-value": "4.5 µM"}
{"smi": "O=c1oc(Nc2ccccc2Cl)nc2cc(Cl)ccc12", "subject-of-test": "Serine protease 1 (Bos taurus)", "readout-label": "IC50", "data-value": "> 100 µM"}
{"smi": "O=c1oc(Nc2ccccc2Br)nc2ccccc12", "subject-of-test": "Serine protease 1 (Bos taurus)", "readout-label": "IC50", "data-value": "> 100 µM"}
{"smi": "O=c1oc(Nc2ccccc2I)nc2cc(F)ccc12", "subject-of-test": "Serine protease 1 (Bos taurus)", "readout-label": "IC50", "data-value": "> 100 µM"}
{"smi": "O=c1oc(-c2ccccc2I)nc2ccccc12", "subject-of-test": "Serine protease 1 (Bos taurus)", "readout-label": "IC50", "data-value": "15.3 µM"}
{"smi": "O=c1oc(Nc2c(Cl)cccc2Cl)nc2cc(C(F)(F)F)ccc12", "subject-of-test": "Serine protease 1 (Bos taurus)", "readout-label": "IC50", "data-value": "87.1 µM"}
{"smi": "O=c1oc(Nc2cc(Cl)ccc2Cl)nc2ccccc12", "subject-of-test": "Serine protease 1 (Bos taurus)", "readout-label": "IC50", "data-value": "> 100 µM"}

Here is the next item to consider.
Request: // lookup IC50 | system=Serine protease 1 (Bos taurus) | key= "O=c1oc(Nc2ccccc2I)nc2cc([N+](=O)[O-])ccc12"
Result: > 100 µM

###

- subject-of-test: Serine protease 1 (Bos taurus)
- Sequence (P00760 whole entry): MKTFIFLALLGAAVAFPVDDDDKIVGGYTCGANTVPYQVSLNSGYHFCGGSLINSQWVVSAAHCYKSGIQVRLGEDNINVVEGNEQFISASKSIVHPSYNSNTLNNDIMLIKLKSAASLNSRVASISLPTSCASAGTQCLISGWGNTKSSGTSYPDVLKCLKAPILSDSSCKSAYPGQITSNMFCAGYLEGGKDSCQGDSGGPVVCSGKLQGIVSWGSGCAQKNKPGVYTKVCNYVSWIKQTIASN
- assay-comment: The compound was evaluated to inhibit trypsin and is expressed in IC50 (The concentration required to inhibit 50% of the enzyme).
readout-label: pIC50
// pIC50: -log10(molar conc.)

Request: Need pIC50, item "N=C(N)c1ccc2cc(OC(=O)c3ccc(N=C(N)N)cc3)ccc2c1"
Result: 7.77

###

- subject-of-test: Complement C1r subcomponent (Homo sapiens, UniProt P00736)
- Sequence (P00736 18-463 limits assumed): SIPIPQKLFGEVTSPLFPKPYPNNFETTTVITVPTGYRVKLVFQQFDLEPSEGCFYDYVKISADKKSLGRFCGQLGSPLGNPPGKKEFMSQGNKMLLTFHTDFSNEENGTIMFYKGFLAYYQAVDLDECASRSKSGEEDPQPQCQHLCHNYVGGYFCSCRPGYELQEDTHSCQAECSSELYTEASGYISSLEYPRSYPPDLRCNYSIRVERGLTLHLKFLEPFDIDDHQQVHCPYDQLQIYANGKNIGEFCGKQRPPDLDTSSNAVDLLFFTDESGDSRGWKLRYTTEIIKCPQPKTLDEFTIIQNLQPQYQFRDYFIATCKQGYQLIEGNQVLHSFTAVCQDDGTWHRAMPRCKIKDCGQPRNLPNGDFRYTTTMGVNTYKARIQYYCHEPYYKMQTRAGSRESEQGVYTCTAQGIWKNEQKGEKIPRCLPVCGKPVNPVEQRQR
- Sequence (P00736 464-705 limits assumed): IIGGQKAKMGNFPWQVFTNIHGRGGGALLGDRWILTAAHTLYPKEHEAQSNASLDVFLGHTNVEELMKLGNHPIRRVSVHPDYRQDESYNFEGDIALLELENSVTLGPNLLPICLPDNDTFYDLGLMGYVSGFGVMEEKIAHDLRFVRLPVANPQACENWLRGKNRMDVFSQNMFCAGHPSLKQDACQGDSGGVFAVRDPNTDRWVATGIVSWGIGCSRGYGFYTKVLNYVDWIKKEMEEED
- assay-comment: 50% inhibition of human C1r serine protease after 60 mins using Cbz-Gly-Arg-S-Bzl as substrate
// pIC50 lookup, one value per entry
// pIC50: -log10(molar conc.)

# example entries with known answers
{"smi": "O=c1oc(Nc2ccccc2Cl)nc2ccccc12", "subject-of-test": "Complement C1r subcomponent (Homo sapiens, UniProt P00736)", "pIC50": 5.10}
{"smi": "O=c1oc(Nc2ccccc2Br)nc2ccccc12", "subject-of-test": "Complement C1r subcomponent (Homo sapiens, UniProt P00736)", "pIC50": 4.82}

Request: // lookup pIC50 | system=Complement C1r subcomponent (Homo sapiens, UniProt P00736) | key= "O=c1oc(Nc2cc(Cl)ccc2Cl)nc2ccccc12"
Result: 5.70

Request: // lookup pIC50 | system=Complement C1r subcomponent (Homo sapiens, UniProt P00736) | key= "O=c1oc(Nc2ccccc2I)nc2cc(F)ccc12"
Result: 5.55

Request: // lookup pIC50 | system=Complement C1r subcomponent (Homo sapiens, UniProt P00736) | key= "Cc1ccc2c(=O)oc(Nc3ccccc3I)nc2c1"
Result: 5.82

Request: // lookup pIC50 | system=Complement C1r subcomponent (Homo sapiens, UniProt P00736) | key= "O=c1oc(Nc2c(Cl)cccc2Cl)nc2ccccc12"
Result: 6.05

Request: // lookup pIC50 | system=Complement C1r subcomponent (Homo sapiens, UniProt P00736) | key= "O=c1oc(Nc2ccccc2I)nc2cc(C(F)(F)F)ccc12"
Result: 5.40

Every entry's value here was drawn from ChEMBL document CHEMBL1131375.
